# System: Yellow Fever Mosquito "YFM" (Aedes aegypti)
# Assay type: in vivo
# Condition notes: Table ABC (FB); activity rating class
Assay readout: YFM (Biological Results, Insect species)

Compound	Assay readout	Reported measurement
CS/C(=N\C(=O)NCCc1ccc(-c2ncn(-c3ccc(OC(F)(F)F)cc3)n2)cc1)Nc1cc(C)ccc1C(C)C [FB65]	YFM (Biological Results, Insect species)	A (80-100)
CC(C)c1ccc(Cl)cc1N1C(=O)CS/C1=N\C(=O)NCCc1ccc(-c2ncn(-c3ccc(OC(F)(F)F)cc3)n2)cc1 [FB40]	YFM (Biological Results, Insect species)	A (80-100)
Cc1ccc(N2C(=O)CS/C2=N\C(=O)NC(C)Cc2ccc(-c3ncn(-c4ccc(OC(F)(F)F)cc4)n3)cc2)c(C(C)C)c1 (stereo not drawn) [FB48]	YFM (Biological Results, Insect species)	A (80-100)
CC(C)c1ccc(Cl)cc1N1C(=O)CS/C1=N\C(=O)NCC(C)c1ccc(-c2ncn(-c3ccc(OC(F)(F)F)cc3)n2)cc1 (stereo not drawn) [FB49]	YFM (Biological Results, Insect species)	A (80-100)
Cc1ccc(C(C)C)c(N2C(=O)CS/C2=N\C(=O)N(C)CCc2ccc(-c3ncn(-c4ccc(OC(F)(F)F)cc4)n3)cc2)c1 [FB51]	YFM (Biological Results, Insect species)	A (80-100)
CCC(Cc1ccc(-c2ncn(-c3ccc(OC(F)(F)F)cc3)n2)cc1)NC(=O)/N=C1\SCC(=O)N1c1cc(C)ccc1C(C)C (stereo not drawn) [FB43]	YFM (Biological Results, Insect species)	A (80-100)

Req: Consider the compound Cc1ccc(C(C)C)c(N2C(=O)CS/C2=N\C(=O)NC2(Cc3ccc(-c4ncn(-c5ccc(OC(F)(F)F)cc5)n4)cc3)CC2)c1 [FB63] . State its measured YFM (Biological Results, Insect species).
Resp: A (80-100)

Req: Consider the compound C=CCN(CCc1ccc(-c2ncn(-c3ccc(OC(F)(F)F)cc3)n2)cc1)C(=O)/N=C1\SCC(=O)N1c1cc(C)ccc1C(C)C [FB61] . State its measured YFM (Biological Results, Insect species).
Resp: A (80-100)

Req: Consider the compound Cc1ccc(C(C)C)c(N2C(=O)CS/C2=N\C(=O)N(CCc2ccc(-c3ncn(-c4ccc(OC(F)(F)F)cc4)n3)cc2)CC2CC2)c1 [FB62] . State its measured YFM (Biological Results, Insect species).
Resp: A (80-100)

Req: Consider the compound Cc1ccc(N2/C(=N/C(=O)NCCc3ccc(-c4ncn(-c5ccc(OC(F)(F)F)cc5)n4)cc3)SCC2C)c(C(C)C)c1 (stereo not drawn) [FB60] . State its measured YFM (Biological Results, Insect species).
Resp: A (80-100)

Req: Consider the compound Cc1cccc(C)c1N1/C(=N/C(=O)NCCc2ccc(-c3ncn(-c4ccc(OC(F)(F)F)cc4)n3)cc2)SCC1C (stereo not drawn) [FB59] . State its measured YFM (Biological Results, Insect species).
Resp: A (80-100)

Req: Consider the compound CC(C)c1cc(F)ccc1N1/C(=N/C(=O)NCCc2ccc(-c3ncn(-c4ccc(OC(F)(F)F)cc4)n3)cc2)SCC1C (stereo not drawn) [FB57] . State its measured YFM (Biological Results, Insect species).
Resp: A (80-100)

Req: Consider the compound Cc1ccc(C(C)C)c(N2C(=O)CCS/C2=N\C(=O)NCCc2ccc(-c3ncn(-c4ccc(OC(F)(F)F)cc4)n3)cc2)c1 [FB41] . State its measured YFM (Biological Results, Insect species).
Resp: A (80-100)

Req: Consider the compound Cc1ccc(N2C(=O)CS/C2=N\C(=O)NCCCCc2ccc(-c3ncn(-c4ccc(OC(F)(F)F)cc4)n3)cc2)c(C)c1 [FB17] . State its measured YFM (Biological Results, Insect species).
Resp: A (80-100)
